Listing: %-release in 1N HCl, ambient of selected molecules
experiment.description: Chemical stability: hydrolysis to hydrocodone in 1 N HCl for 1 hour
protocol.conditions: ambient temperature (~20° C.)
Number only, in %; omit the unit.

Some solved entries appear below for comparison.
molecule	%-release in 1N HCl, ambient / %
COc1ccc(C(=O)OC2=CC[C@H]3[C@H]4Cc5ccc(OC)c6c5[C@@]3(CCN4C)C2O6)cc1O (stereo partly shown)	0
COc1ccc2c3c1O[C@H]1C(OC(=O)c4ccc(O)cc4)=CC[C@H]4[C@@H](C2)N(C)CC[C@]314	0
COc1ccc2c3c1OC1C(OC(=O)CCCCC(=O)O)=CC[C@H]4[C@@H](C2)N(C)CC[C@]314 (stereo partly shown) [Adipate-HC, reference compound]	13

Query: Item under review: COc1ccc2c3c1OC1C(OC(=O)c4ccccc4N)=CCC4C(C2)N(C)CCC314.Cl.Cl (stereo not shown) . Reported %-release in 1N HCl, ambient?
Result: 0
